These data points were gathered from paper PMC10914731.

# system: ClpC1 NTD protein (M. tuberculosis) (Mycobacterium tuberculosis)
# Sequence (P9WPC9 1-156, looked up, natural form): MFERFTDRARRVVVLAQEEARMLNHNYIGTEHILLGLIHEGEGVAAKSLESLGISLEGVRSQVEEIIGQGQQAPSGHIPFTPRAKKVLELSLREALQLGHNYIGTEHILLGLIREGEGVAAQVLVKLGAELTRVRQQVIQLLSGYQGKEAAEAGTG
# test-method-notes: biochemical
# Assay type: binding
# test-context: SPR dissociation rate constant; read-out: koff ClpC1-NTD Mean ± SD
Where a SMILES comes first, the peptide text is derived from it. [ ]: non-standard residue; d: D form. NMeTrp(1-Me) = CN[C@@H](Cc1cn(C)c2ccccc12)C(=O)O; NMeLeu(5-OH,4R) = CN[C@@H](C[C@@H](C)CO)C(=O)O; Phe(βR-OMe) = CO[C@H](c1ccccc1)[C@H](N)C(=O)O; NMeL = CN[C@@H](CC(C)C)C(=O)O
Values of koff strictly less than 0.04 s⁻¹ map to true (1), and values of at least 0.04 s⁻¹ map to false (0).

molecule	class-assignment
CO[C@H](c1ccccc1)[C@@H]1NC(=O)[C@H](C)NC(=O)[C@H](C[C@@H](C)CO)N(C)C(=O)[C@H](Cc2cn(Cc3cn(CCCCCn4cc(Cn5cc(C[C@@H]6NC(=O)[C@H](C(C)C)NC(=O)[C@H](CC(C)C)N(C)C(=O)[C@H](C(C)C)NC(=O)[C@H]([C@H](OC)c7ccccc7)NC(=O)[C@H](C)NC(=O)[C@H](C[C@@H](C)CO)N(C)C6=O)c6ccccc65)nn4)nn3)c3ccccc23)NC(=O)[C@H](C(C)C)NC(=O)[C@H](CC(C)C)N(C)C(=O)[C@H](C(C)C)NC1=O [Compound 9]	true (1)
CO[C@H](c1ccccc1)[C@@H]1NC(=O)[C@H](C)NC(=O)[C@H](C[C@@H](C)CO)N(C)C(=O)[C@H](Cc2cn(Cc3cn(CCOCCOCCOCCOCCn4cc(Cn5cc(C[C@H]6C(=O)N(C)[C@@H](C[C@@H](C)CO)C(=O)N[C@@H](C)C(=O)N[C@@H]([C@H](OC)c7ccccc7)C(=O)N[C@@H](C(C)C)C(=O)N(C)[C@@H](CC(C)C)C(=O)N[C@@H](C(C)C)C(=O)N6C)c6ccccc65)nn4)nn3)c3ccccc23)N(C)C(=O)[C@H](C(C)C)NC(=O)[C@H](CC(C)C)N(C)C(=O)[C@H](C(C)C)NC1=O [Compound 27]	true (1)
CCCCCn1cc(C[C@@H]2NC(=O)[C@H](CC(C)C)N(C)C(=O)[C@H](C(C)C)NC(=O)[C@H]([C@H](OC)c3ccccc3)NC(=O)[C@H](C)NC(=O)[C@H](C[C@@H](C)CO)N(C)C(=O)[C@H](Cc3cn(C)c4ccccc34)N(C)C2=O)nn1 [Compound 25]	false (0)
CO[C@H](c1ccccc1)[C@@H]1NC(=O)[C@H](C)NC(=O)[C@H](C[C@@H](C)CO)N(C)C(=O)[C@H](Cc2cn(C)c3ccccc23)N(C)C(=O)[C@H](CCC(=O)N(C)C)NC(=O)[C@H](CC(C)C)N(C)C(=O)[C@H](C(C)C)NC1=O [SI-76] (cyclo(A[Phe(βR-OMe)]V[NMeL]E(NMe2)[NMeTrp(1-Me)][NMeLeu(5-OH,4R)]))	false (0)
CO[C@H](c1ccc(OCc2cn(CCCCCn3cc(COc4ccc([C@@H](OC)[C@@H]5NC(=O)[C@H](C)NC(=O)[C@H](C[C@@H](C)CO)N(C)C(=O)[C@H](Cc6cn(C)c7ccccc67)N(C)C(=O)[C@H](C(C)C)NC(=O)[C@H](CC(C)C)N(C)C(=O)[C@H](C(C)C)NC5=O)cc4)nn3)nn2)cc1)[C@@H]1NC(=O)[C@H](C)NC(=O)[C@H](C[C@@H](C)CO)N(C)C(=O)[C@H](Cc2cn(C)c3ccccc23)N(C)C(=O)[C@H](C(C)C)NC(=O)[C@H](CC(C)C)N(C)C(=O)[C@H](C(C)C)NC1=O [SI-66]	true (1)
